# Lookup of reported Ki keyed by entry
# assay target: UniProt P28223
# assay explanation: FLIPR functional assay (primary screening and IC50 determination), inhibition of 5-HT evoked peak response
# Type: cell-based
# Set-up: expressed in transfected cells; host or cells: CHO
# condition summary: CHO cells expressing 5-HT2A, 15 min pre-incubation, Ki calculated from IC50 (Cheng Prushoff)
Unit nM implied. Number only.

# smiles repr, measurement type, endpoint result
records = [
    ("c1ccc(CCN2CCC(c3nc(-c4ccccc4)c4ccccn34)CC2)cc1", "Ki", 20.6),
]

Now for another entry.
GET /values?item= Cc1ccn2c(C3CCN(CCc4ccccc4)CC3)nc(-c3ccccc3)c2c1 &system= UniProt P28223 returns Ki: 8.2

* * *

This section presents compounds with their documented Ki values.
# assay target: 5-HT1B (Homo sapiens, UniProt P28222)
# Construct: expressed in transfected cells; host or cells: CHO or HEK293
# Sequence (P28222 whole entry): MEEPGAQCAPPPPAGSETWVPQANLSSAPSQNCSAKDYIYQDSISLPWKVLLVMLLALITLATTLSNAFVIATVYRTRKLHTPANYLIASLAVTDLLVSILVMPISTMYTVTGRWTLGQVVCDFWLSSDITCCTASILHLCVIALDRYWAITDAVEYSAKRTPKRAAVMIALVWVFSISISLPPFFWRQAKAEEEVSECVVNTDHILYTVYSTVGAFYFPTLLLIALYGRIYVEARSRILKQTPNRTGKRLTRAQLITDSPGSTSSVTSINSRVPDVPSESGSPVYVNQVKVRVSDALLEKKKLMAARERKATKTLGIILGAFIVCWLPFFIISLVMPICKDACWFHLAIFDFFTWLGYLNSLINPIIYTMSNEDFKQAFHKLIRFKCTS
# assay explanation: Radioligand displacement binding (3H-LSD), SPA or filter binding
# condition summary: recombinant human receptor
# Protocol: The affinity constants of compounds were determined using recombinant human serotonin receptors stably expressed in fibroblast cell lines (CHO or HEK293), measuring the ability of the compounds to displace radio-labelled tracers using scintillation proximity assays or filter binding assays. […]

# compound, Ki
measured = [
    ("Cc1ccn2c(C3CCN(CCc4ccccc4)CC3)nc(-c3ccccc3)c2c1 [Example 4]", "> 1000 nM"),
]

Read the next record carefully.
I looked up c1ccc(CCN2CCC(c3nc(-c4ccccc4)c4ccccn34)CC2)cc1 [Example 2] and its Ki for 5-HT1B (Homo sapiens, UniProt P28222) was > 1000 nM

* * *

# assay target: 5-HT2A (Homo sapiens, UniProt P28223)
# Sequence (P28223 whole entry): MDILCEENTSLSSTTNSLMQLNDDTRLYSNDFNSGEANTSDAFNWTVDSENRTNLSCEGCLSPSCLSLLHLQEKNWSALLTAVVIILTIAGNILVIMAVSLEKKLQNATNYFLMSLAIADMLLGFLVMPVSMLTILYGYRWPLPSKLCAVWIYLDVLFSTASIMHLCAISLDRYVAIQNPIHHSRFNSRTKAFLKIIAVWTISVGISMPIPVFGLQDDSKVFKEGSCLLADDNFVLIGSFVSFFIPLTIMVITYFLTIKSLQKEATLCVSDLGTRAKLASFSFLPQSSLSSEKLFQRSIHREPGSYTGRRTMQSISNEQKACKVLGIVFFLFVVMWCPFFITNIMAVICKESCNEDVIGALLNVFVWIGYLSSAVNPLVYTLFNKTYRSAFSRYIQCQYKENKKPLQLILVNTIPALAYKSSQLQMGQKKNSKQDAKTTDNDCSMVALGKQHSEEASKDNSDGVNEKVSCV
# assay explanation: Radioligand displacement binding (3H-5-HT), SPA or filter binding
# Parameters: expressed in transfected cells; host or cells: CHO or HEK293
# condition summary: recombinant human receptor, 3H-5-HT; read-out: Binding Ki (nM) 5-HT2A
# Protocol: The affinity constants of compounds were determined using recombinant human serotonin receptors stably expressed in fibroblast cell lines (CHO or HEK293), measuring the ability of the compounds to displace radio-labelled tracers using scintillation proximity assays or filter binding assays. […]
Items are presented alongside their recorded Ki.
Give the quantity in nM, number only.

Value of Ki reported for the compound Cc1ccn2c(C3CCN(CCc4ccccc4)CC3)nc(-c3ccccc3)c2c1 [Example 4] is 13.6

The recorded Ki for entry c1ccc(CCN2CCC(c3nc(-c4ccccc4)c4ccccn34)CC2)cc1 [Example 2] equals 5.9

* * *

# assay target: 5-HT2B (Homo sapiens, UniProt P41595)
# Construct: expressed in transfected cells; host or cells: CHO or HEK293
# Sequence (P41595 whole entry): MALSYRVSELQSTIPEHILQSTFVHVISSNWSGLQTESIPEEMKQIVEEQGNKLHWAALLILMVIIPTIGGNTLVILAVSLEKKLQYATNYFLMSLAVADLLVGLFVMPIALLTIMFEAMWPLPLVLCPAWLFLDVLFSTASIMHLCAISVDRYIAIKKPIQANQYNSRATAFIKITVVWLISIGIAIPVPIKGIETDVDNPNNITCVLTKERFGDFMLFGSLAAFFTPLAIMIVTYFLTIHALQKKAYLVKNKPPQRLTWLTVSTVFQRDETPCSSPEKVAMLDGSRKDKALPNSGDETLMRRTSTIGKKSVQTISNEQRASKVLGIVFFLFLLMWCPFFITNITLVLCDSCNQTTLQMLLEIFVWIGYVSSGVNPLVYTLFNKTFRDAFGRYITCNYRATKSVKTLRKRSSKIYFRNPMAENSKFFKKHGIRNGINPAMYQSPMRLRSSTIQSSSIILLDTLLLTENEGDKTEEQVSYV
# assay explanation: Radioligand displacement binding (3H-LSD), SPA or filter binding
# condition summary: recombinant human receptor
Entries and their Ki
// note: answer is a bare numeric in nM

// Ki value for c1ccc(CCN2CCC(c3nc(-c4ccccc4)c4ccccn34)CC2)cc1 [Example 2] : 444

Lab note: Cc1ccn2c(C3CCN(CCc4ccccc4)CC3)nc(-c3ccccc3)c2c1 [Example 4] gave Ki of 267

* * *

# key: entry, value: Ki
# assay target: 5-HT2C (Homo sapiens, UniProt P28335)
# Sequence (P28335 33-458): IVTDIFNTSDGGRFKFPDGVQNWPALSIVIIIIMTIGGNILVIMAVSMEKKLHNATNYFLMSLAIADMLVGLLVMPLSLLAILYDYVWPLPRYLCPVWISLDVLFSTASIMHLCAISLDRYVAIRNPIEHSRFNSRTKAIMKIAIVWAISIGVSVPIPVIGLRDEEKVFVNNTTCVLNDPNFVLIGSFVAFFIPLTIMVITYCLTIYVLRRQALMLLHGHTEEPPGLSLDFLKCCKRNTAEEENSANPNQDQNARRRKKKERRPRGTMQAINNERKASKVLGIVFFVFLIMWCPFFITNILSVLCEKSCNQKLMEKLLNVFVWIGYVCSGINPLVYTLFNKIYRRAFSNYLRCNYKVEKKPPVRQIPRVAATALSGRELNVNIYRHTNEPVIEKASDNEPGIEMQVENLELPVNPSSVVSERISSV
# assay explanation: Radioligand displacement binding (3H-LSD), SPA or filter binding
# Set-up: expressed in transfected cells; host or cells: CHO or HEK293
# condition summary: recombinant human receptor

# smiles repr, endpoint result
measured = [
    ("Cc1ccn2c(C3CCN(CCc4ccccc4)CC3)nc(-c3ccccc3)c2c1", "> 1000 nM"),
]

Tested system 5-HT2C (Homo sapiens, UniProt P28335); Ki recorded for c1ccc(CCN2CCC(c3nc(-c4ccccc4)c4ccccn34)CC2)cc1 was > 1000 nM
